biological target: RnMFE1 (Rattus norvegicus, UniProt P07896, E123A); construct: gene Ehhadh; experiment: stopped-flow NADH fluorescence, koff/kon; type: binding
Sequence (P07896 whole entry E123A): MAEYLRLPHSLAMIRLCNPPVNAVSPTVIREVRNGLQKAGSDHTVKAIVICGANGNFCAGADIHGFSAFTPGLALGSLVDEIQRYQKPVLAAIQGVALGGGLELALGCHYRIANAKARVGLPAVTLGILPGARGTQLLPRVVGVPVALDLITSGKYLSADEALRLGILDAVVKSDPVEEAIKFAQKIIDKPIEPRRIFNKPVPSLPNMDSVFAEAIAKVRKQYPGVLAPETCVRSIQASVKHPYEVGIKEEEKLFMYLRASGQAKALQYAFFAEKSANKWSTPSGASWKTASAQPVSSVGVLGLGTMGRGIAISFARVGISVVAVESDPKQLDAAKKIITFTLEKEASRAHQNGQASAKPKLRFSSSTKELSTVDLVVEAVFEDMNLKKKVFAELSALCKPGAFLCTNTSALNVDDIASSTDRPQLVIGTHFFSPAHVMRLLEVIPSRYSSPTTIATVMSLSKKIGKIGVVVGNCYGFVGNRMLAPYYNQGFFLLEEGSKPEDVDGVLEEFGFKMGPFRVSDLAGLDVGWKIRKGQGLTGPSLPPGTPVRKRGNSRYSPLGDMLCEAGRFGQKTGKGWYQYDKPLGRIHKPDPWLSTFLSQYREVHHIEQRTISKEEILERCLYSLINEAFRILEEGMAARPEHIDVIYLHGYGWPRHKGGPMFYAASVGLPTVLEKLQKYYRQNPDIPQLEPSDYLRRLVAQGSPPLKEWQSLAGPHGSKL
pKd: −log10 of the molar value.
observationType: pKd

[[record]]
molecule = "NC(=O)C1=CN([C@@H]2O[C@H](COP(=O)(O)OP(=O)(O)OC[C@H]3O[C@@H](n4cnc5c(N)ncnc54)[C@H](O)[C@@H]3O)[C@@H](O)[C@H]2O)C=CC1"
reported = 5.12

